- Test system: angiogenesis, chorioallantoic membrane (CAM)
- protocolSummary: Angiogenesis suppressing activity, chorioallantoic membrane (CAM) assay
- Format: in vivo
- assayConditions: fertilized chicken egg, listed as E, read-out: IC50 values for Angiogenesis Suppression
measure: pIC50
Please treat pIC50 as minus the base-10 logarithm of the molar concentration.

Which pIC50 value belongs to C=C1C(=O)OC2C1CCC(C)(O)C13C=CC(C)(C21)C1(C3)C(=O)OC2C3C(C)=CC(=O)C3=C(C)CC(OC(=O)/C(C)=C\C)C21 (stereo not shown) [Arteminolide E] ?
4.70

====

- testTarget: farnesyl-protein transferase (FPTase) (Rattus norvegicus, UniProt Q02293+Q04631)
- Construct: a cerebrum obtained from white rat; from tissue; host or cells: rat cerebrum (male Sprague-Dawley, 100-150 g), homogenate, partially purified on Q Sepharose Fast Flow
- protocolSummary: Farnesyl-protein transferase inhibiting activity, scintillation proximity assay with 3H-FPP and biotin-lamin B peptide
- Format: biochemical
- assayConditions: read-out: IC50 values for FPTase Inhibition
Below, each of the compounds is paired with its reported pIC50 value.
Please treat pIC50 as minus the base-10 logarithm of the molar concentration.

Here's what some known entries look like.
* C=C1C(=O)OC2C1CCC(C)(O)C13C=CC(C)(C21)C1(C3)C(=O)OC2C3C(C)=CC(=O)C3=C(C)CC(OC(=O)/C(C)=C/C)C21 (stereo not shown) [Arteminolide D] | 6.20
* C=C1C(=O)OC2C1CCC(C)(O)C13C=CC(C)(C21)C1(C3)C(=O)OC2C3C(C)=CC(=O)C3=C(C)CC(OC(=O)CC(C)C)C21 (stereo not shown) [Arteminolide A] | 6.42
* C=C1C(=O)OC2C1CCC(C)(O)C13C=CC(C)(C21)C1(C3)C(=O)OC2C3C(C)=CC(=O)C3=C(C)CC(OC(=O)CC(C)C)C21 (stereo not shown) [Arteminolide F] | 3.80

Next, consider the following compound.
Which pIC50 value belongs to C=C1C(=O)OC2C1CCC(C)(O)C13C=CC(C)(C21)C1(C3)C(=O)OC2C3C(C)=CC(=O)C3=C(C)CC(OC(=O)C=C(C)C)C21 (stereo not shown) [Arteminolide B] ?
6.40

====

- testTarget: farnesyl-protein transferase (FPTase) (Rattus norvegicus, UniProt Q02293+Q04631)
- Construct: a cerebrum obtained from white rat; from tissue; host or cells: rat cerebrum (male Sprague-Dawley, 100-150 g), homogenate, partially purified on Q Sepharose Fast Flow
- protocolSummary: Farnesyl-protein transferase inhibiting activity, scintillation proximity assay with 3H-FPP and biotin-lamin B peptide
- Assay type: biochemical
- assayConditions: listed as C; read-out: IC50 values for FPTase Inhibition
measure: IC50 (nM)
Give a bare numeral; the unit nM is implied.

Which IC50 value belongs to C=C1C(=O)OC2C1CCC(C)(O)C13C=CC(C)(C21)C1(C3)C(=O)OC2C3C(C)=CC(=O)C3=C(C)CC(OC(=O)/C(C)=C\C)C21 (stereo not shown) [Arteminolide C] ?
740

====

- Tested on: angiogenesis, chorioallantoic membrane (CAM)
- protocolSummary: Angiogenesis suppressing activity, chorioallantoic membrane (CAM) assay
- Assay type: in vivo
- assayConditions: fertilized chicken egg, listed as F, read-out: IC50 values for Angiogenesis Suppression
- Procedure: Angiogenesis was determined in accordance with the chorioallantoic membrane(CAM) assay method of Kusaka et al. described in Biochem. Biophy. Res. Comm., 174, 1070(1991) by using a fertilized chicken egg. A fertilized chicken egg(Pulmuwon co., Korea) was incubated at 37°-38° C. and a humidity of more than 90%. […] Angiogenesis suppressing activity was then calculated in accordance with the following equation: [formula]
measure: pIC50
Please treat pIC50 as minus the base-10 logarithm of the molar concentration.

Which pIC50 value belongs to C=C1C(=O)OC2C1CCC(C)(O)C13C=CC(C)(C21)C1(C3)C(=O)OC2C3C(C)=CC(=O)C3=C(C)CC(OC(=O)CC(C)C)C21 (stereo not shown) [Arteminolide F] ?
4.62

====

- testTarget: farnesyl-protein transferase (FPTase) (Rattus norvegicus, UniProt Q02293+Q04631)
- Construct: a cerebrum obtained from white rat; from tissue; host or cells: rat cerebrum (male Sprague-Dawley, 100-150 g), homogenate, partially purified on Q Sepharose Fast Flow
- protocolSummary: Farnesyl-protein transferase inhibiting activity, scintillation proximity assay with 3H-FPP and biotin-lamin B peptide
- Type: biochemical
- assayConditions: listed as E; read-out: IC50 values for FPTase Inhibition
measure: IC50 (µM)
Give a bare numeral; the unit µM is implied.

Which IC50 value belongs to C=C1C(=O)OC2C1CCC(C)(O)C13C=CC(C)(C21)C1(C3)C(=O)OC2C3C(C)=CC(=O)C3=C(C)CC(OC(=O)/C(C)=C\C)C21 (stereo not shown) [Arteminolide E] ?
150
